Test system: Chordin-like protein 2 (CHRDL2)
test summary: CHRDL2 small-molecule binders, primary screen, biochemical, small-molecule microarray, 635 nm fluorescence (AID 1126);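 note: printed compound slides probed with Chrdl2 protein at 4 µg/mL for 1 h at 4 C; score merges 667 nm emission intensity with signal to noise over three replicate slides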
condition: small-molecule microarray binding, fluorescence 635 nm; higher = more signal
Lab note: anything with composite z-score at or over 0.2 counts as YES; the rest go in NO.

Sample answers from the record:
INSERT INTO measurements (compound_structure_string, target_or_test_system, cat) VALUES
  ('COc1ccc(NC(=O)O[C@H]2[C@H](OC(=O)Nc3ccccc3)[C@H](OC(=O)Nc3ccccc3)[C@@H](OC)O[C@@H]2CO)cc1', 'Chordin-like protein 2 (CHRDL2)', 'NO'),
  ('COc1ccc(CCN2C(=O)[C@@]3(Cc4ccccc42)c2ccccc2C(=O)N(Cc2ccccc2OC)[C@H]3c2ccc(CO)cc2)cc1', 'Chordin-like protein 2 (CHRDL2)', 'NO');

Task item: Could you tell me if the measured composite z-score of C=C(COC)/C(=C/C[C@H](OC(=O)c1ccncc1)c1ccccc1OCCO)c1cnc2ccccc2c1 reaches 0.2 or more?
Reply: YES

Task item: Next entry: [N-]=[N+]=Nc1ccccc1[C@H]1OC(c2ccc(OCCCO)cc2)=N[C@@]1(CCS(=O)(=O)c1ccccc1)C(=O)NCCN1CCOCC1
Reply: YES

Task item: Next entry: CCC[C@@H]1C[C@@]1(CCC)[C@@H](NC(=O)OCc1ccccc1)c1ccc(-c2ccccc2)cc1
Reply: NO

Task item: Next entry: COc1cc2c(cc1OC)CN(C(=O)[C@@H]1[C@H]3C(=O)O[C@H](c4ccccc4)[C@H](c4ccccc4)N3[C@H](c3ccc(OCCO)cc3)[C@@]13C(=O)Nc1ccccc13)CC2
Reply: YES

Data origin, for the record: PubChem BioAssay
